Organism: Homo sapiens
TEST_DESCRIPTION: Selectivity ratio of Ki for human testis ACE delta36NJ mutant to Ki for human ACE Ndom389 mutant
PROPERTY_MEASURED: Ratio Ki

Recorded result, C[C@H](N[C@H](C(=O)O)[C@@H]1CCCN1C(=O)[C@@H](N)CC(=O)O)C(=O)N1CCC[C@H]1C(=O)O , Ratio Ki: 83.9

Reported Ratio Ki of C[C@H](N[C@H](C(=O)O)[C@@H]1CCCN1C(=O)c1ccccc1)C(=O)N1CCC[C@H]1C(=O)O : 0.07

Recorded Ratio Ki (compound C[C@H](N[C@H](C(=O)O)[C@@H]1CCCN1C(=O)CN)C(=O)N1CCC[C@H]1C(=O)O ): 0.16

# compound C[C@H](N[C@H](C(=O)O)[C@@H]1CCCN1C(=O)c1ccc(C(=O)O)cc1)C(=O)N1CCC[C@H]1C(=O)O ; its Ratio Ki = 0.14

Sure, the documented Ratio Ki for C[C@H](N[C@H](C(=O)O)[C@@H]1CCCN1C(=O)[C@@H](N)CCC(=O)O)C(=O)N1CCC[C@H]1C(=O)O is 1.81

Query C[C@H](N[C@H](C(=O)O)[C@@H]1CCCN1C(=O)c1ccc(N)cc1)C(=O)N1CCC[C@H]1C(=O)O yields Ratio Ki of 0.07

# Ratio Ki (compound: C[C@H](N[C@H](C(=O)O)[C@@H]1CCCN1C(=O)[C@@H](N)Cc1ccccc1)C(=O)N1CCC[C@H]1C(=O)O ) is 2.39

====

TEST_DESCRIPTION: Inhibition of human testis ACE delta36NJ mutant preincubated for 30 mins followed by Z-FHL substrate addition measured after 15 mins by fluorimetric method
Please respond with reported Ki for every item in the list.
Give your result in nM as a bare value.

C[C@H](N[C@H](C(=O)O)[C@@H]1CCCN1C(=O)c1ccccc1)C(=O)N1CCC[C@H]1C(=O)O yielded Ki of 0.31

Record C[C@H](N[C@H](C(=O)O)[C@@H]1CCCN1C(=O)[C@@H](N)CC(=O)O)C(=O)N1CCC[C@H]1C(=O)O , field Ki: 961

# Ki of C[C@H](N[C@H](C(=O)O)[C@@H]1CCCN1C(=O)[C@@H](N)Cc1ccccc1)C(=O)N1CCC[C@H]1C(=O)O = 168

Kindly note the recorded Ki for C[C@H](N[C@H](C(=O)O)[C@@H]1CCCN1C(=O)[C@@H](N)CCC(=O)O)C(=O)N1CCC[C@H]1C(=O)O , which is 17.4

====

Task for the reader: assign each of the following compounds its reported Ki.
TEST_DESCRIPTION: Inhibition of human testis ACE delta36NJ mutant preincubated for 30 mins followed by Z-FHL substrate addition measured after 15 mins by fluorimetric method

Query C[C@H](N[C@H](C(=O)O)[C@@H]1CCCN1C(=O)c1ccc(N)cc1)C(=O)N1CCC[C@H]1C(=O)O yields Ki of 0.22 nM

Briefly, Ki measured for C[C@H](N[C@H](C(=O)O)[C@@H]1CCCN1C(=O)c1ccc(C(=O)O)cc1)C(=O)N1CCC[C@H]1C(=O)O : 2.29 nM

# Ki (compound: C[C@H](N[C@H](C(=O)O)[C@@H]1CCCN1C(=O)CN)C(=O)N1CCC[C@H]1C(=O)O ) is 44.4 nM
